# credit: patent US20230026616A1

protocol: Pharmacokinetic evaluation (1): cassette PK in Balb/c male mice, plasma
Assay type: in vivo
protocol_conditions: male, Balb/c; mouse plasma, IV 1 mg/kg; read-out: Vdss
result_type: Vd (L/kg)
Hi! Could you send only the number? It should be in L/kg, unit omitted.

// query Using the record for Cc1cc2ncnn2cc1Nc1ncc2c(n1)n(N1CC3CCC(C1)O3)c(=O)n2C , report its Vd.
// result 1.49

###

protocol: Pharmacokinetic evaluation (1): cassette PK in Balb/c male mice, plasma
Format: in vivo
protocol_conditions: male, Balb/c; mouse plasma, PO 5 mg/kg
result_type: half-life (h)
Entry rule: numbers only, all in h.

// query Need half-life, item Cc1cc2ncnn2cc1Nc1ncc2c(n1)n(N1CC3CCC(C1)O3)c(=O)n2C
// result 3.85

###

# clearance annotations
protocol: Pharmacokinetic evaluation (1): cassette PK in Balb/c male mice, plasma
Type: in vivo
protocol_conditions: male, Balb/c; mouse plasma, IV 0.4 mg/kg
Reply with just the number (in mL/min/kg).

Cc1cc2nncn2cc1Nc1ncc2c(n1)n(N1CC3CCC(C1)O3)c(=O)n2C [Compound 17] = 34.7

// query I am curious: what clearance value has been reported for Cc1cc2ncnn2cc1Nc1ncc2c(n1)n(N1C3CCC1COC3)c(=O)n2C [Compound 4] ?
// result 57

// query What about Cc1cc2ncnn2cc1Nc1ncc2c(n1)n(N1CCOCC1)c(=O)n2C [Compound 1] ?
// result 37.7

// query Do the same for Cc1cc2ncnn2cc1Nc1ncc2c(n1)n(N1CCOC3(CC3)C1)c(=O)n2C [Compound 10] please
// result 25.4

###

protocol: Pharmacokinetic and brain exposure evaluation in rats
Format: in vivo, SD male rats
protocol_conditions: male, SD, 2 mg/kg; rat plasma, IV 2 mpk
result_type: C0 (µM)
Write the number in µM without appending the unit.

// query Which C0 reading was recorded for the molecule Cc1cc2nncn2cc1Nc1ncc2c(n1)n(N1CC3CCC(C1)O3)c(=O)n2C ?
// result 5.3

###

protocol: Pharmacokinetic and brain exposure evaluation in rats
Format: in vivo, SD male rats
protocol_conditions: male, SD, 40 mg/kg; rat, PO 40 mpk, Brain tissue
result_type: Tmax (h)
Lab book: enter the figure in h, no units written.

// query So what does the record say about Tmax for Cc1cc2ncnn2cc1Nc1ncc2c(n1)n(N1CC3CCC(C1)O3)c(=O)n2C ?
// result 4

###

protocol: Pharmacokinetic evaluation (1): cassette PK in Balb/c male mice, plasma
Format: in vivo
protocol_conditions: male, Balb/c; mouse plasma, PO 2 mg/kg
// reported half-life for each item listed
Supply the numeric figure in min, leaving out any unit text.

Use these answered entries as a reference point.
Cc1cc2nncn2cc1Nc1ncc2c(n1)n(N1CC3CCC(C1)O3)c(=O)n2C = 48.6
Cc1cc2ncnn2cc1Nc1ncc2c(n1)n(N1CCOC3(CC3)C1)c(=O)n2C = 73.2

// query Query: half-life; subject: Cc1cc2ncnn2cc1Nc1ncc2c(n1)n(N1C3CCC1COC3)c(=O)n2C
// result 36.5

###

protocol: Pharmacokinetic evaluation in cynomolgus monkeys
Format: in vivo, Male cynomolgus monkeys
protocol_conditions: male, 5 mg/kg; cynomolgus monkey plasma, PO 5 mpk
result_type: AUC(0-t)
Express the reported value numerically, then name its unit.

// query Item under review: Cc1cc2ncnn2cc1Nc1ncc2c(n1)n(N1CC3CCC(C1)O3)c(=O)n2C . Reported AUC(0-t)?
// result 14 µM·h

###

protocol: Pharmacokinetic evaluation in mice (2), plasma
Assay type: in vivo, Balb/c male mice
protocol_conditions: male, Balb/c, 2 mg/kg; mouse plasma, IV 2 mpk
result_type: clearance (mL/min/kg)
Give your result in mL/min/kg as a bare value.

// query Reported clearance, compound Cc1cc2ncnn2cc1Nc1ncc2c(n1)n(N1CC3CCC(C1)O3)c(=O)n2C : ____
// result 23.7

###

measurement_target: Human DNA-PK (Homo sapiens)
Construct: purchased Eurofins (Eurofins Pharma Discovery Service)
protocol: DNA-dependent protein kinase (DNA-PK) inhibitory activity screening (Eurofins, HTRF)
Assay type: biochemical
protocol_conditions: ATP: 10 μM; read-out: DNA-PK kinase inhibition IC50
result_type: IC50 (nM)
Report as a plain number; the unit nM is understood.

Cc1cc2ncnn2cc1Nc1ncc2c(n1)n(N1CCC(C#N)CC1)c(=O)n2C [Compound 14] = 5
Cc1cc2ncnn2cc1Nc1ncc2c(n1)n(N1C3CCC1COC3)c(=O)n2C [Compound 4] = 1
Cc1cc2ncnn2cc1Nc1ncc2c(n1)n(N1CC3CCCC3C1)c(=O)n2C (stereo not shown) [Compound 15] = 1
Cc1cc2ncnn2cc1Nc1ncc2c(n1)n(N1CCC(F)(F)CC1)c(=O)n2C [Compound 7] = 2
Cc1cc2ncnn2cc1Nc1ncc2c(n1)n(N1CC3CC(C1)O3)c(=O)n2C [Compound 6] = 1

// query Recall the recorded IC50 for Cc1cc2nccn2cc1Nc1ncc2c(n1)n(N1C3CCC1COC3)c(=O)n2C [Compound 20] with Human DNA-PK (Homo sapiens) and state it.
// result 0.9

// query // query: Cc1cc2ncnn2cc1Nc1ncc2c(n1)n(N1CCC3(CC1)COC3)c(=O)n2C [Compound 11]
// result 5

###

protocol: Pharmacokinetic evaluation in mice (2), plasma
Assay type: in vivo, Balb/c male mice
protocol_conditions: male, Balb/c, 2 mg/kg; mouse plasma, IV 2 mpk
Procedure: […] Test compounds were mixed with […]/50% polyethylene glycol 200/40% water, vortexed and sonicated to prepare a nearly clear solution of 0.4 mg/mL (compound 5), then filtered through a microporous membrane for next step. […] Whole blood was collected for a certain period of time, and plasma was prepared, then drug concentration was detected by LC-MS/MS method, and pharmacokinetic parameters were calculated by Phoenix WinNonlin software (Pharsight, USA).
result_type: AUC(0-t) (µM·h)
Please state the figure in µM·h; there is no need to write the unit.

// query Reported AUC(0-t) for Cc1cc2ncnn2cc1Nc1ncc2c(n1)n(N1CC3CCC(C1)O3)c(=O)n2C [Compound 5] : what is it?
// result 3.45
